Hey, just so you know, these numbers are from patent US20240270821A1.

targetSystem: human GcgR (Homo sapiens)
Sequence (P47871 26-477): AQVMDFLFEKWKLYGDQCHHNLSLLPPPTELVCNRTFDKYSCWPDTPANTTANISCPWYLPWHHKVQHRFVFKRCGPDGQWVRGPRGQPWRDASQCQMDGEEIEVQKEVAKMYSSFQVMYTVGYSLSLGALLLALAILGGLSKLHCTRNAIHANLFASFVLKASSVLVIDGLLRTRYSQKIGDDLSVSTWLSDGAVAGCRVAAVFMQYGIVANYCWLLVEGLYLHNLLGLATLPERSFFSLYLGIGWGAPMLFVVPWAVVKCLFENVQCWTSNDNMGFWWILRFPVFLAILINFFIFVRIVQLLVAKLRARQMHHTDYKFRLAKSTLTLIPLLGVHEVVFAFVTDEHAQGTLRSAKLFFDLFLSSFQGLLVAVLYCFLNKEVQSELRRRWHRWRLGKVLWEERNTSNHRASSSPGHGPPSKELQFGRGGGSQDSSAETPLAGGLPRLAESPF
experimentSummary: Functional cAMP activity in the presence of 1% HSA
Format: cell-based
studyConditions: read-out: cAMP Rel EC50, hGcgR
Starred links: 1 amine or outer side, 2 acyl side, 3 side chain; linkers in the order of their positions; H or OH if unused. Non-standard residues stand in square brackets, D forms with d. Groups on a side chain read outwards from the residue. *: point of attachment. C18 diacid = O=C(O)CCCCCCCCCCCCCCCCC(=O)*; αMePhe(2-F) = C[C@](N)(Cc1ccccc1F)C(=O)O; γGlu = O=C(O)[C@H](CCC(=O)[*:2])N[*:1]; αMe4Pal = C[C@](N)(Cc1ccncc1)C(=O)O; αMeY = C[C@](N)(Cc1ccc(O)cc1)C(=O)O; αMeF = C[C@](N)(Cc1ccccc1)C(=O)O; 4Pal = N[C@@H](Cc1ccncc1)C(=O)O; αMeL = CC(C)C[C@](C)(N)C(=O)O; αMeS = C[C@](N)(CO)C(=O)O; Orn = NCCC[C@H](N)C(=O)O; Dap = NC[C@H](N)C(=O)O; AEEA = NCCOCCOCC(=O)O; Aib = CC(C)(N)C(=O)O
// reported EC50 per item
endpoint: EC50 (nM)

>>> endpointvalue("H-Y[Aib]QGT[αMeF]TSD[4Pal][αMeS]I[αMeL]LD[Orn]K([AEEA-γGlu-C18 diacid])AQ[αMe4Pal]EFI[dE][αMeY]LIEGGPSSGAPPPSGE-NH2 [Example 1164]")
359
>>> endpointvalue("H-Y[Aib]QGTFTSDFS[Dap][αMeL]LDKK([AEEA-γGlu-C18 diacid])AQ[Aib]AFIEYLLE[Aib]GPSSGAPPPSGS-NH2 [Example 134]")
1200
>>> endpointvalue("H-Y[Aib]QGT[αMePhe(2-F)]TSD[4Pal]SILLD[Orn]K([γGlu-γGlu-C18 diacid])AQ[Aib]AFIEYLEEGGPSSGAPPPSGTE-NH2 [Example 513]")
1440

###

targetSystem: human GcgR (Homo sapiens)
experimentSummary: Functional cAMP activity in the presence of 1% HSA
Assay type: cell-based
studyConditions: read-out: cAMP Rel EC50, hGcgR
Starred links: 1 amine or outer side, 2 acyl side, 3 side chain; linkers in the order of their positions; H or OH if unused. Non-standard residues stand in square brackets, D forms with d. Groups on a side chain read outwards from the residue. *: point of attachment. C18 diacid = O=C(O)CCCCCCCCCCCCCCCCC(=O)*; αMePhe(2-F) = C[C@](N)(Cc1ccccc1F)C(=O)O; γGlu = O=C(O)[C@H](CCC(=O)[*:2])N[*:1]; αMe4Pal = C[C@](N)(Cc1ccncc1)C(=O)O; αMeY = C[C@](N)(Cc1ccc(O)cc1)C(=O)O; 4Pal = N[C@@H](Cc1ccncc1)C(=O)O; αMeL = CC(C)C[C@](C)(N)C(=O)O; αMeS = C[C@](N)(CO)C(=O)O; Orn = NCCC[C@H](N)C(=O)O; AEEA = NCCOCCOCC(=O)O; Aib = CC(C)(N)C(=O)O
endpoint: EC50

>>> endpointvalue("H-Y[Aib]QGT[αMePhe(2-F)]TSD[4Pal][αMeS]I[αMeL]LD[Orn]K([AEEA-γGlu-γGlu-C18 diacid])AQ[αMe4Pal]EFI[dE][αMeY]LIEGGPSSGEPPPSGGGE-NH2 [Example 1181]")
"203 nM"
>>> endpointvalue("H-Y[Aib]QGTFTSD[4Pal]SQ[αMeL]LDKK([Glu-γGlu-C18 diacid])AQ[αMe4Pal]AFIEYLIE[Aib]GPSSGAPPPSGS-NH2 [Example 894]")
"2330 nM"
>>> endpointvalue("H-Y[Aib]QGT[αMePhe(2-F)]TSD[4Pal][αMeS]I[αMeL]LD[Orn]K([AEEA-γGlu-C18 diacid])AQ[αMe4Pal]EFI[dE][αMeY]LVEGGPSSGEPPPGGE-NH2 [Example 1155]")
"288 nM"
